These entries and their values trace back to patent US12582624B2.

- PROCEDURE DETAILS: in vivo
- COND: male, Sprague Dawley, rat, po
READOUT KIND: Kp at 2 h
Write no unit; give the number alone.

# input Bench note: what Kp at 2 h did NCC1(CC(=O)O)CCCCC1 show?
# output 0.378
